- System: L1210 leukemia ip in BDF1 mice, survival T/C
- RUN DESCRIPTION: NCI In Vivo Anticancer Drug Screen. Data for tumor model L1210 Leukemia (intraperitoneal) in B6D2F1 (BDF1) mice
- CONDITION INFO: endpoint: mean survival time; dose: 400.0 mg/kg/injection; schedule: Q01DX009 (ip); vehicle: saline with Tween-80; higher = longer survival
Toxic doses and inconclusive results are not listed.
RESULT TYPE: T/C

Some solved cases for reference:
O=C(Nc1ccccc1C(F)(F)F)Oc1ccc(Cl)cc1Cc1ccccc1 | 101 % of control
CC(=O)Oc1ccc(C2OC(=O)c3ccccc3N2C(C)=O)cc1 (stereo not given) | 92 % of control
CC(C)(C)SC(C)(C)C | 96 % of control
CC(=O)CC(=O)Nc1ccc([N+](=O)[O-])cc1 | 102 % of control
CCCCCOC(=O)Nc1cccc(OC(=O)NC)c1 | 97 % of control

Query :: Sample O=C(OCC1OC(OC2(COC(=O)c3ccccc3)OC(COC(=O)c3ccccc3)C(OC(=O)c3ccccc3)C2OC(=O)c2ccccc2)C(OC(=O)c2ccccc2)C(OC(=O)c2ccccc2)C1OC(=O)c1ccccc1)c1ccccc1 (stereo not given) — what was its T/C?
Result :: 92 % of control

Query :: # iterate: Cc1ccc(COC(=O)Nc2ccc(C)c(NC(=O)OCc3ccc(C)cc3)c2)cc1
Result :: 90 % of control

Query :: # iterate: CCOc1ccccc1CC(=O)O
Result :: 101 % of control

Query :: # iterate: CCO/C=C(\C#N)C(=O)O
Result :: 102 % of control

Query :: # iterate: O=[N+]([O-])c1ccc(Sc2cccs2)c([N+](=O)[O-])c1
Result :: 102 % of control

Query :: # iterate: Cc1ncc(C(O)(c2ccccc2)C(C)C)n1Cc1ccccc1 (stereo not given)
Result :: 102 % of control

Query :: # iterate: CCCCSCCO
Result :: 107 % of control

Query :: # iterate: CC(C)COC(=O)c1cc(O)c(O)c(O)c1
Result :: 107 % of control

Query :: # iterate: Cc1ccc(S(=O)(=O)Nc2ccc(C#N)c3ccccc23)cc1
Result :: 89 % of control

Query :: # iterate: Nc1ccc2c(=O)[nH][nH]c(=O)c2c1
Result :: 95 % of control

Query :: # iterate: NC(=O)CC(NC(=O)CCl)C(=O)O (stereo not given)
Result :: 86 % of control

Query :: # iterate: O=C(Oc1ccccc1)c1cc(Br)c2ccccc2c1O
Result :: 93 % of control

Query :: # iterate: Cn1nnc2nnc(-c3ccccc3)n21
Result :: 108 % of control

Query :: # iterate: O=Cc1ccc(O)c(Br)c1
Result :: 88 % of control

----------
The following compounds are shown together with reported T/C values.
- Tested on: L1210 leukemia ip in BDF1 mice, survival T/C
- RUN DESCRIPTION: NCI In Vivo Anticancer Drug Screen. Data for tumor model L1210 Leukemia (intraperitoneal) in B6D2F1 (BDF1) mice
- CONDITION INFO: endpoint: mean survival time; dose: 50.0 mg/kg/injection; schedule: Q04DX003 (ip); vehicle: saline with Tween-80; higher = longer survival
Inconclusive results and toxic doses are left out.

O=C(O)/C=C/C(=O)Nc1ccc(I)cc1 | 104 % of control
CC1(C)CC(=O)C=C(N2CCC(CCCC3CCN(C4=CC(=O)CC(C)(C)C4)CC3)CC2)C1 | 94 % of control
O=C(Nc1ncccn1)c1ccc(Cl)cc1Cl | 93 % of control

Query :: Sample NC(=O)C1(c2ccccc2)CCN(Cc2ccccc2)CC1 — what was its T/C?
Result :: 95 % of control

Query :: # iterate: CC(C)[PH+]1c2ccccc2-c2ccccc21.CC(C)[PH+]1c2ccccc2-c2ccccc21.[Cl][Pt][Cl]
Result :: 98 % of control

Query :: # iterate: CC(C)=CCC/C(C)=C/CNC(=O)/C=C/C(=O)O
Result :: 91 % of control

Query :: # iterate: COC(=O)C12Oc3ccc(-c4ccc5c(c4O)C(O)=C4C(=O)CC(C)C(O)C4(C(=O)OC)O5)c(O)c3C(O)=C1C(=O)CC(C)C2O (stereo not drawn)
Result :: 104 % of control

Query :: # iterate: O=C1NCN(c2ccccc2)C12CCNCC2
Result :: 94 % of control
